Target of assay: T1, TNFR1 (Homo sapiens, UniProt P19438)
T1 chain: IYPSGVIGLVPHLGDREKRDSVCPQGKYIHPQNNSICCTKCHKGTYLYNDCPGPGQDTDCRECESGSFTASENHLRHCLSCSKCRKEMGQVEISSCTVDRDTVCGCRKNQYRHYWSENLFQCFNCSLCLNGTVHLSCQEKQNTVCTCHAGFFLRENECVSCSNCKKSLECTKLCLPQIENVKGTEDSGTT
Measurement protocol: yeast display SC50
Metric: apparent Kd (screen) (nM)

| Binder | Unit spec | apparent Kd (screen) |
| --- | --- | --- |
| E3R (designed binder) SMREEVEKAAKEYEKKKKEAIEKHLEKLKAKDKEAAERFLKELEEAAKEYAKDEAKTMSEEEAKRRAKKYKEKVLLSELSEEEQKEIKEAEEKLVRTILKYVEEAAK | nM | 1.4 |
| L28K (designed binder) SMEEEVEKAAKEYEKKKKEAIEKHLEKKKAKDKEAAERFLKELEEAAKEYAKDEAKTMSEEEAKRRAKKYKEKVLLSELSEEEQKEIKEAEEKLVRTILKYVEEAAK | nM | 1.54 |
| K23N (designed binder) SMEEEVEKAAKEYEKKKKEAIENHLEKLKAKDKEAAERFLKELEEAAKEYAKDEAKTMSEEEAKRRAKKYKEKVLLSELSEEEQKEIKEAEEKLVRTILKYVEEAAK | nM | 0.49 |

P. S77I (designed binder) SMEEEVEKAAKEYEKKKKEAIEKHLEKLKAKDKEAAERFLKELEEAAKEYAKDEAKTMSEEEAKRRAKKYKEKVLLIELSEEEQKEIKEAEEKLVRTILKYVEEAAK
Q. L28H (designed binder) SMEEEVEKAAKEYEKKKKEAIEKHLEKHKAKDKEAAERFLKELEEAAKEYAKDEAKTMSEEEAKRRAKKYKEKVLLSELSEEEQKEIKEAEEKLVRTILKYVEEAAK
Enquiry: For the pair P and Q , which member has the lower apparent Kd (screen) number? Your answer should be the label attached to the chosen record.
Return: Q
(Q: 0.79 nM, P: 11.4 nM)

Values compiled from paper PMC12416549.
